# T½ listing for each entry below
- system name: T1, mfGCGR-hFc (cynomolgus monkey (Macaca fascicularis))
- T1 construct: also called mfGCGR-N-terminal hFc
- T1 sequence (chain, as listed by the source limits assumed): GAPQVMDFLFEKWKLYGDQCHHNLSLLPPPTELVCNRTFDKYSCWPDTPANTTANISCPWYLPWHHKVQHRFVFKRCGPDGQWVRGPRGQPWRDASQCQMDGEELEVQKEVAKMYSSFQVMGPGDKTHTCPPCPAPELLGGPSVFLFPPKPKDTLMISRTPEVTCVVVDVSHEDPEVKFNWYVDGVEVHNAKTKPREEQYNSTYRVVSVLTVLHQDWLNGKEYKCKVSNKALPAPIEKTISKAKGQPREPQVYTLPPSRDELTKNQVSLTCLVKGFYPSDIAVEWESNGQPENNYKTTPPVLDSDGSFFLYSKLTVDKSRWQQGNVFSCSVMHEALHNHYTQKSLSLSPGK
- experimental details: SPR Biacore T100, 25C, mAb captured, antigen flowed
Reply numerically in h, unit not repeated.

binder	T½ (h)
H4H1339P (antibody, V domains shown, Fully human anti-GCGR antibody; the controls are called isotype-matched hIgG4) VH: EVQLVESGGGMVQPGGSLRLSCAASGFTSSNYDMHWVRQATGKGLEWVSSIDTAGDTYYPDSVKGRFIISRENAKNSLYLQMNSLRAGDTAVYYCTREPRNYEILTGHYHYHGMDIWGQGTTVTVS VL: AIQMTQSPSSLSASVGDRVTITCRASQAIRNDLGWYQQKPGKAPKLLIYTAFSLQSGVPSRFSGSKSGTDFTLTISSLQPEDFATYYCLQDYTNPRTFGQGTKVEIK	8.43

Measured T½, H4H1765N (antibody, V domains shown, Anti-GCGR antibody from hybridoma; the controls are called isotype-matched hIgG4) VH: EEQLVESGGDLVQPGGSLRLSCAASGFTLSSYEMNWVRQAPGKGLEWVSYISRGGSLIHYTDSVKGRFTISRDNAKNSLYLQMNSLRAEDTAVYYCVRDPAARYHYYYHGMDVWGQGTTVTVSS VL: DIVMTQSPLSLPVTPGEPASISCRSSQSLLHNNGYNYLDWYLQKPGQSPQLLIYLGSSRASGVPDRFSGSGSGTDFILKISRVEAEDVGVYYCMQALQTPWTFGRGTKVEIK : 192

What the record says about H4H1327P (antibody, V domains shown, also called anti-GCGR (hIgG4) antibody designated H4H1327P) VH: EVQLVESGGGLVQPGGSLRLSCAASGFTFSNYLMNWVRQAPGKGLEWLANIQEDGIEKYYVDSVKGRFTISRDNAKNSLYLQMNSLRAEDTAVYYCAREPSHYDILTGYDYYYGMDVWGQGTTVTVS VL: DIQMTQSPSSLSASVGDRVTITCRASQGIRNDLGWYQQKPGKAPKRLIYAASSLQSGVPSRFSGSGSGTEFILTVSSLQPEDFATYYCLQYNSNPFTFGPGTKVDIK : T½ is 13.4
